# MEASUREMENT NOTES: Tmax in rat at 13 mg/kg, po
# Assay type: ADME, organism-based
# Design: dose 13 mg/kg, route oral
# EXPERIMENTAL SETUP: in vivo
ASSAY READOUT: Tmax
Returns: string containing the number followed by the unit.

Look up Tmax: CC(C)=CCC/C(C)=C/CNCCNC1C2CC3CC(C2)CC1C3 (stereo unspecified)
45 min

====

# MEASUREMENT NOTES: Oral bioavailability in dog
# Type: ADME, organism-based, Canis lupus familiaris
# EXPERIMENTAL SETUP: in vivo
ASSAY READOUT: bioavailability (%)
Give bare numbers, in %.

Look up bioavailability: CC(C)=CCC/C(C)=C/CNCCNC1C2CC3CC(C2)CC1C3 (stereo unspecified) [SQ109]
3.8

====

# MEASUREMENT NOTES: Half life in rat at 13 mg/kg, po
# Assay type: ADME, organism-based
# Design: dose 13 mg/kg, route oral
# EXPERIMENTAL SETUP: in vivo
ASSAY READOUT: half-life (min)
One number for each entry, in min.

Look up half-life: CC(C)=CCC/C(C)=C/CNCCNC1C2CC3CC(C2)CC1C3 (stereo unspecified)
223

====

# MEASUREMENT NOTES: Half life in rat at 1.5 mg/kg, iv
# Type: ADME, organism-based
# Parameters: dose 1.5 mg/kg, route intravenous
# EXPERIMENTAL SETUP: in vivo
ASSAY READOUT: half-life (h)
Numbers only, in h.

Look up half-life: CC(C)=CCC/C(C)=C/CNCCNC1C2CC3CC(C2)CC1C3 (stereo unspecified) [SQ109]
5.06

====

# MEASUREMENT NOTES: Cmax in rat at 1.5 mg/kg, iv
# Assay type: ADME, organism-based
# Set-up: dose 1.5 mg/kg, route intravenous
# EXPERIMENTAL SETUP: in vivo
ASSAY READOUT: Cmax (ng/mL)
Answers are plain numbers, in ng/mL.

Look up Cmax: CC(C)=CCC/C(C)=C/CNCCNC1C2CC3CC(C2)CC1C3 (stereo unspecified)
889
